FYI, the data here is from patent EP0770606A1.

assay: Cytotoxicity by trypan blue dye exclusion; format: cell-based; conditions: human, h9 or sup t1 cells; concentration at which 50% of the cells die; 0.1µM to 100µM tested; cell line not stated; read-out: CT50 (the source's name)
measured_parameter: CC50 (µM)
Numbers only, in µM.

Problem: Using the record for CC(C)(C)NC(=O)[C@@H]1CN(Cc2cccnc2)CCN1C[C@@H](O)C[C@@H](Cc1ccccc1)C(=O)N[C@H]1c2ccccc2C[C@H]1O [MK-639, reference compound] , report its CC50.
Result: 10
